# Tested on: NCI-H522
# assay method text: NCI tumour cell line growth inhibition, 48 h
Active and inactive are the calls of the source. Cut-off read from the data, not from the text of the source: active = GI50 up to about 1.1 µM and inactive = higher.
Tick one outcome: Y for active, N for inactive

State the result this test recorded for Cc1ccc(C)c(NC(=O)c2cccc([N+](=O)[O-])c2O)c1 .
N

Hey, what did the test say about NS(=O)(=O)c1ccc(NNC(=O)c2cccc3c(=O)c4ccccc4[nH]c23)cc1 ?
N

Recorded test call requested for O=c1[nH]c2c(c3ccccc13)CCc1ccccc1-2
N

Name the outcome recorded for O=S(=O)(O)c1ccc2c(/N=N/c3ccc(/N=N/c4ccccc4)cc3)c(O)c(S(=O)(=O)O)cc2c1 in the assay.
N

Look up the recorded call for C=CCOc1ccc(C2C(C(=O)OC)C(=O)CC(O)(c3ccccc3)C2C(=O)OC)cc1OC (stereo not given) in this test.
N

Please state the recorded outcome for this molecule: C=CCN1C(=O)/C(=C/c2ccco2)N=C1SC/C=C/C
N

What call does the record list for CN(C)CCNC(=O)c1cccc2c(Nc3ccc(S(=O)(=O)N=C(N)N)cc3)c3ccccc3nc12 ?
N

For this molecule, state the assay outcome: O=C(CCC(=O)C(C(=O)c1ccccc1)c1ccccc1)Nc1cccc(C(F)(F)F)c1 (stereo not given)
N

Dear colleague, could you share the recorded outcome for NC1(C(=O)O)CCCC1 when you have a moment?
N

Field: outcome | Entry: CCOC(=O)N1C(=O)C2C3C=CC(C2C1=O)C1C2C(=O)N(C(=O)OCC)C(=O)C2C31 (stereo not given)
N

Tell me the assay call for CCOC1SC(SC)=NN1C(=O)C(OC(C)=O)C(OC(C)=O)C(OC(C)=O)C(OC(C)=O)C(=O)N1N=C(SC)SC1OCC (stereo not given) please.
N

Which outcome did this test record for the molecule Cc1ccc(S(=O)(=O)Oc2cc(S(=O)(=O)O)cc3cc(S(=O)(=O)O)cc(N)c23)cc1 ?
N

Per the assay record, what outcome was assigned to Cc1ccc(/N=C2\C(=N/c3ccc(C)cc3)N(c3ccc(C)cc3)C(=S)N2C(=O)c2ccccc2)cc1 ?
N

Assay result, entry Fc1cc(-c2cc(-c3ccccc3)n[nH]2)c(Cl)cc1Cl — outcome?
N

Call for entry CC(C)NC(=O)O/N=C1\CCC2[C@@H]3CC=C4C[C@@H](OC(=O)NC(C)C)CC[C@]4(C)C3CC[C@]12C (stereo not given in full) :
N

# outcome recorded in this test, key = Nc1ccccc1S(=O)(=O)N(CC(=O)O)c1ccccc1
N

Could you kindly confirm the outcome this assay logged for N#Cc1nc(/C=C/c2ccccc2)oc1N ?
N

// outcome(item) with item = CC(=O)OC1(C#N)CC2OC1C1NC21 (stereo not given)
N

Please share the test call associated with c1ccc(/N=C2\SC3=NCCN3\C2=N/c2ccccc2)cc1 .
N

Could you check what this test reported for c1ccc(Cc2cc(-c3ccccc3)[nH]n2)cc1 ?
N

// outcome(item) with item = C=C(C)[C@@H]1CCC2=C[C@H](C/C(C)=C\C3=CC(C)=C(O3)[C@H]1O)OC2=O
N

Test call for this molecule, please: CC(=O)O[C@H]1C(=O)[C@@]2(C)[C@H]([C@H](OC(=O)c3ccccc3)[C@]3(O)C[C@H](OC(=O)[C@H](O)[C@@H](NC(=O)CC(C)C)c4ccccc4)C(C)=C1C3(C)C)[C@]1(OC(C)=O)CO[C@@H]1C[C@@H]2O
Y

I would be grateful if you could indicate the recorded call for CCCc1n[nH]c(=O)n1N1C(=O)C=CC1=O .
N

Record request — test call for O=C1CC(C(O)C(O)C(O)CO)CC(=O)N1 (stereo not given)
N

Recorded test call requested for COc1ccc(C(OC(C)=O)C2C(=C(C#N)C#N)c3ccccc3C2=C(C#N)C#N)cc1 (stereo not given)
N

Recorded call for COc1cc(C2c3cc4c(cc3OC(NNS(=O)(=O)c3ccc(C)cc3)C2C)OCO4)cc(OC)c1O (stereo not given) ?
N

Record request — test call for COc1ccc(-c2c(=O)[nH]n3c(=S)[nH]c(-c4ccccc4)nc23)cc1OC
N

Status in this test for O=C(CCN(CCO)CCO)Nc1ccc2c(c1)C(=O)c1ccc(NC(=O)CCN(CCO)CCO)cc1C2=O ?
N

Hello, I am checking results. What call was entered for Cc1ccccc1OC(C)C(=O)NN1C(=O)CSC1c1ccccc1 (stereo not given) ?
N

Give the logged outcome of this assay for the following molecule: CC(/C=N/N(C)C1=NCCCN1)=N/N(C)C1=NCCCN1
N

Returns: the outcome recorded for Cc1oc2c(c1C)S(=O)(=O)C(C#N)=C(N(C)C)N2 in this assay.
N

What call does the record list for C=CC1=CC(C)C[C@]1(O)C(=O)OC (stereo not given in full) ?
N

Recorded call for COc1ccc(/C=c2\c(=O)[nH]c3nc4ccccc4c(=O)n23)cc1 ?
N

Dear all, I need the recorded test outcome for CSc1ccc2c(cc1=O)C(NC(=O)c1ccc(OC(C)=O)cc1)CCc1cc(O)c(O)c(O)c1-2 (stereo not given) , thank you.
N

// param item: CCOC(=O)CCn1cnc(N)n1 ; yields the recorded call
N
